This section presents compounds with their documented pIC50 values.
System: MDA-MB-231 human breast cancer cells
Experiment: MTT cell viability, MDA-MB-231
Assay type: cell-based
Conditions: Homo sapiens, MDA-MB-231, 72 h, mean ± SD
Source text: The six cell lines used in this work (MCF-7, MDA-MB-231, HeLa, […], MCF-10A and Hek-293) were purchased from American Type Culture Collection (ATCC, Manassas, VA, USA). […] Cell viability has been determined using the 3-(4,5-dimethylthiazol-2-y1)-2,5-diphenyltetrazolium bromide (MTT, Sigma–Aldrich, Milan, Italy) assay. […]
pIC50: −log10 of the molar value.

{"COMPOUND": "OC(Cn1cc[n+](CC(O)c2ccccc2)c1)c1ccccc1 (centres unmarked)", "pIC50": "< 3.70"}
{"COMPOUND": "OCc1ccc(-[n+]2ccn(CC(O)c3ccccc3)c2)cc1 (centres unmarked)", "pIC50": "< 3.70"}

====

System: ISHIKAWA human endometrial adenocarcinoma cells
Test: MTT cell viability, […]
Format: cell-based
Conditions: 72 h, mean ± SD
Note to self: use Y only for IC50 readings below 30 µM; a reading exactly at 30 µM still gets N.

{"MOLECULE": "OCc1ccc(-n2ccn(CC(O)c3ccccc3)[c]2=[Ag][Br])cc1 (centres unmarked)", "STUDY_SYSTEM": "ISHIKAWA human endometrial adenocarcinoma cells", "GROUP": "N"}
{"MOLECULE": "N.N.[Cl][Pt][Cl] [Cis-platin, Cisplatin, reference compound]", "STUDY_SYSTEM": "ISHIKAWA human endometrial adenocarcinoma cells", "GROUP": "Y"}
{"MOLECULE": "C[n+]1cn(CC(O)c2ccccc2)c(Cl)c1Cl (centres unmarked)", "STUDY_SYSTEM": "ISHIKAWA human endometrial adenocarcinoma cells", "GROUP": "N"}
{"MOLECULE": "C[n+]1c(Cl)c(Cl)n(CC(O)c2ccccc2)[c]1[Ag-][c]1n(CC(O)c2ccccc2)c(Cl)c(Cl)[n+]1C.[I][Ag-][I] (racemic)", "STUDY_SYSTEM": "ISHIKAWA human endometrial adenocarcinoma cells", "GROUP": "Y"}
{"MOLECULE": "OC(Cn1cc[n+](CC(O)c2ccccc2)[c]1[Ag-][c]1n(CC(O)c2ccccc2)cc[n+]1CC(O)c1ccccc1)c1ccccc1.[I][Ag-][I] (mixture of isomers)", "STUDY_SYSTEM": "ISHIKAWA human endometrial adenocarcinoma cells", "GROUP": "Y"}
{"MOLECULE": "OC(Cn1ccn(CC(O)c2ccccc2)[c]1=[AuH]=[c]1n(CC(O)c2ccccc2)ccn1CC(O)c1ccccc1)c1ccccc1.[Cl][AuH][Cl] (centres unmarked)", "STUDY_SYSTEM": "ISHIKAWA human endometrial adenocarcinoma cells", "GROUP": "Y"}
{"MOLECULE": "OCc1ccc(-n2cc[n+](CC(O)c3ccccc3)[c]2[Au-][Br])cc1 (racemic)", "STUDY_SYSTEM": "ISHIKAWA human endometrial adenocarcinoma cells", "GROUP": "N"}

====

Tested on: Hek-293 human embryonic kidney epithelial cells
Assay: MTT cell viability, normal Hek-293
Assay type: cell-based
Conditions: read-out: IC50 Hek-293 of AuL7 after Quercetin pre-treatment; pre-treatment for 4 h with Quercetin (at 50 μM)
Excerpt: The six cell lines used in this work (MCF-7, MDA-MB-231, HeLa, […], MCF-10A and Hek-293) were purchased from American Type Culture Collection (ATCC, Manassas, VA, USA). […] Cell viability has been determined using the 3-(4,5-dimethylthiazol-2-y1)-2,5-diphenyltetrazolium bromide (MTT, Sigma–Aldrich, Milan, Italy) assay. […]
pIC50: −log10 of the molar value.

{"MOLECULE": "C[n+]1c(Cl)c(Cl)n(CC(O)c2ccccc2)[c]1[Au-][c]1n(CC(O)c2ccccc2)c(Cl)c(Cl)[n+]1C.[Cl][Au-][Cl] (racemic)", "pIC50": 4.01}
